Molecular target: recombinant cathepsin V (Homo sapiens)
Sequence (O60911 114-334): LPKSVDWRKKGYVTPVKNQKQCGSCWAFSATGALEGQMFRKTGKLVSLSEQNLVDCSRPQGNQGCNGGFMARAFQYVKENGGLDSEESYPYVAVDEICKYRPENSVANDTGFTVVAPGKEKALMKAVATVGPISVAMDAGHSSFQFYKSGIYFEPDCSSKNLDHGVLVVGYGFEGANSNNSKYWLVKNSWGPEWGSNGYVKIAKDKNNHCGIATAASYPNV
Assay: Enzyme kinetics / turnover of quenched substrates with recombinant cathepsin V
Assay type: biochemical
Settings: recombinant cathepsin V, 5 nM enzyme, 50 mM citrate buffer pH 5.5, 37° C.; average of three replicates ± standard error
quantityMeasured: Km (µM)
Please state the figure in µM; there is no need to write the unit.

Worked examples follow.
| compound | unitAnnotation | readoutNumber |
| --- | --- | --- |
| CC[N+]1=C(C=CC=CC=C2N(CCCCCC(=O)NCCCCNC(=O)[C@H](CCCCNC(=O)C3CCN(S(=O)(=O)c4ccccc4-c4c5ccc(=[N+]6CCc7cc(S(=O)(=O)O)ccc76)cc-5oc5cc(N6CCc7cc(S(=O)(=O)O)ccc76)ccc45)CC3)NC(=O)[C@H](Cc3ccccc3)NC(=O)OCc3ccccc3)c3ccc(S(=O)(=O)O)cc3C2(C)C)C(C)(C)c2cc(S(=O)(=O)O)ccc21 [4QC] | µM | 4.8 |
| CC[N+]1=C(C=CC=CC=C2N(CCCCCC(=O)NCCCC[C@H](NC(=O)[C@H](Cc3ccccc3)NC(=O)OCc3ccccc3)C(=O)NCCCCCCNC(=O)C3CCN(S(=O)(=O)c4ccccc4-c4c5ccc(=[N+]6CCc7cc(S(=O)(=O)O)ccc76)cc-5oc5cc(N6CCc7cc(S(=O)(=O)O)ccc76)ccc45)CC3)c3ccc(S(=O)(=O)O)cc3C2(C)C)C(C)(C)c2cc(S(=O)(=O)O)ccc21 [6CQ] | µM | 6.8 |

Field: next compound
The compound listed as CC[N+]1=C(C=CC=CC=C2N(CCCCCC(=O)NCCNC(=O)[C@H](CCCCNC(=O)C3CCN(S(=O)(=O)c4ccccc4-c4c5ccc(=[N+]6CCc7cc(S(=O)(=O)O)ccc76)cc-5oc5cc(N6CCc7cc(S(=O)(=O)O)ccc76)ccc45)CC3)NC(=O)[C@H](Cc3ccccc3)NC(=O)OCc3ccccc3)c3ccc(S(=O)(=O)O)cc3C2(C)C)C(C)(C)c2cc(S(=O)(=O)O)ccc21 [2QC] shows Km equal to 0.9

---

Target: recombinant cathepsin L (Homo sapiens, UniProt P07711)
Sequence (P07711 114-333, species assumed): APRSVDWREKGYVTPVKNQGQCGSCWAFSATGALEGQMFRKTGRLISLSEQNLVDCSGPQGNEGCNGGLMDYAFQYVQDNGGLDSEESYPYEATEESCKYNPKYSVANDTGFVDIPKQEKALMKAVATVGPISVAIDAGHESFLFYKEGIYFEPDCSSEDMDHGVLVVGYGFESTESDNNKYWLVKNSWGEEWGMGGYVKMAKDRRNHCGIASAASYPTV
Experiment: Enzyme kinetics / turnover of quenched substrates with recombinant cathepsin L
Format: biochemical
Conditions: recombinant cathepsin L, 5 nM enzyme, citrate buffer pH 5.5, 37° C.
Protocol: The activity and selectivity of all 6 substrates were determined by monitoring the turnover curves of each internally quenched probe in the presence of various recombinant cysteine proteases, specifically cathepsins L, S, K, B, and V. Equal concentration (5 nM) of each enzyme was incubated with the different probes in 50 mM citrate buffer (pH=5.5, 5 mM DTT, 0.1% triton X, 0.5% CHAPS) at 37° C. […]
quantityMeasured: kcat (s⁻¹)
Reply with just the number (in s⁻¹).

Solved cases (5 shown):
| recordSmiles | readoutNumber |
| --- | --- |
| CC[N+]1=C(C=CC=CC=C2N(CCCCCC(=O)NCCNC(=O)[C@H](CCCCNC(=O)C3CCN(S(=O)(=O)c4ccccc4-c4c5ccc(=[N+]6CCc7cc(S(=O)(=O)O)ccc76)cc-5oc5cc(N6CCc7cc(S(=O)(=O)O)ccc76)ccc45)CC3)NC(=O)[C@H](Cc3ccccc3)NC(=O)OCc3ccccc3)c3ccc(S(=O)(=O)O)cc3C2(C)C)C(C)(C)c2cc(S(=O)(=O)O)ccc21 | 0.095 |
| CC[N+]1=C(C=CC=CC=C2N(CCCCCC(=O)NCCCCCCNC(=O)[C@H](CCCCNC(=O)C3CCN(S(=O)(=O)c4ccccc4-c4c5ccc(=[N+]6CCc7cc(S(=O)(=O)O)ccc76)cc-5oc5cc(N6CCc7cc(S(=O)(=O)O)ccc76)ccc45)CC3)NC(=O)[C@H](Cc3ccccc3)NC(=O)OCc3ccccc3)c3ccc(S(=O)(=O)O)cc3C2(C)C)C(C)(C)c2cc(S(=O)(=O)O)ccc21 | 0.458 |
| CC[N+]1=C(C=CC=CC=C2N(CCCCCC(=O)NCCCCNC(=O)[C@H](CCCCNC(=O)C3CCN(S(=O)(=O)c4ccccc4-c4c5ccc(=[N+]6CCc7cc(S(=O)(=O)O)ccc76)cc-5oc5cc(N6CCc7cc(S(=O)(=O)O)ccc76)ccc45)CC3)NC(=O)[C@H](Cc3ccccc3)NC(=O)OCc3ccccc3)c3ccc(S(=O)(=O)O)cc3C2(C)C)C(C)(C)c2cc(S(=O)(=O)O)ccc21 | 0.396 |
| CC[N+]1=C(C=CC=CC=C2N(CCCCCC(=O)NCCCC[C@H](NC(=O)[C@H](Cc3ccccc3)NC(=O)OCc3ccccc3)C(=O)NCCCCCCNC(=O)C3CCN(S(=O)(=O)c4ccccc4-c4c5ccc(=[N+]6CCc7cc(S(=O)(=O)O)ccc76)cc-5oc5cc(N6CCc7cc(S(=O)(=O)O)ccc76)ccc45)CC3)c3ccc(S(=O)(=O)O)cc3C2(C)C)C(C)(C)c2cc(S(=O)(=O)O)ccc21 | 0.487 |
| CC[N+]1=C(C=CC=CC=C2N(CCCCCC(=O)NCCCC[C@H](NC(=O)[C@H](Cc3ccccc3)NC(=O)OCc3ccccc3)C(=O)NCCNC(=O)C3CCN(S(=O)(=O)c4ccccc4-c4c5ccc(=[N+]6CCc7cc(S(=O)(=O)O)ccc76)cc-5oc5cc(N6CCc7cc(S(=O)(=O)O)ccc76)ccc45)CC3)c3ccc(S(=O)(=O)O)cc3C2(C)C)C(C)(C)c2cc(S(=O)(=O)O)ccc21 | 0.141 |

// below: kcat requested for another molecule
For this molecule ( CC[N+]1=C(C=CC=CC=C2N(CCCCCC(=O)NCCCC[C@H](NC(=O)[C@H](Cc3ccccc3)NC(=O)OCc3ccccc3)C(=O)NCCCCNC(=O)C3CCN(S(=O)(=O)c4ccccc4-c4c5ccc(=[N+]6CCc7cc(S(=O)(=O)O)ccc76)cc-5oc5cc(N6CCc7cc(S(=O)(=O)O)ccc76)ccc45)CC3)c3ccc(S(=O)(=O)O)cc3C2(C)C)C(C)(C)c2cc(S(=O)(=O)O)ccc21 ), measured kcat is 0.283

FYI, the data here is from patent US12459972B2.
